Target: T1, human amylin-3 (a) receptor (human, UniProt P30988 25-474; O60896 24-148)
T1 sequence (looked up) 1: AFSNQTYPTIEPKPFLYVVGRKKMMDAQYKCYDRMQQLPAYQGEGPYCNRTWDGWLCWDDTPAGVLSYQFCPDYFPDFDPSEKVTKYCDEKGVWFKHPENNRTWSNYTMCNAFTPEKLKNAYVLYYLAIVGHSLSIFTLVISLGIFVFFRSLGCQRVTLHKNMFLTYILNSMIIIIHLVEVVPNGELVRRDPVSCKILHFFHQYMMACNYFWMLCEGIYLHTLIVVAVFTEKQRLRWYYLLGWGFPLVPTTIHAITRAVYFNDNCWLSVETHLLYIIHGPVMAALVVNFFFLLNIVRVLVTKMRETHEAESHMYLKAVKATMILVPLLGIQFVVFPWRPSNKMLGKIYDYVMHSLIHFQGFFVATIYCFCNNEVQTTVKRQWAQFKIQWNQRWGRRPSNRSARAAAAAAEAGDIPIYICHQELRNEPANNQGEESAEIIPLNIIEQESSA
T1 sequence (looked up) 2: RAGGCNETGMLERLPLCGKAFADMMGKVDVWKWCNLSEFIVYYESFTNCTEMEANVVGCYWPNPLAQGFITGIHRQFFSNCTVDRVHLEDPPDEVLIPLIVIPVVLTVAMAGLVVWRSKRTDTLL
Assay: cell-based or functional assay
Starred links: 1 amine or outer side, 2 acyl side, 3 side chain; linkers in the order of their positions; H or OH if unused. Non-standard residues stand in square brackets, D forms with d. Groups on a side chain read outwards from the residue. *: point of attachment. Decanoyl(10-(4-HOOC-PhO)) = O=C(O)c1ccc(OCCCCCCCCCC(=O)*)cc1; C20 diacid = O=C(O)CCCCCCCCCCCCCCCCCCC(=O)*; γGlu = O=C(O)[C@H](CCC(=O)[*:2])N[*:1]; C14 diacid = O=C(O)CCCCCCCCCCCCC(=O)*; Trx = NC[C@H]1CC[C@H](C(=O)O)CC1; AEEA = NCCOCCOCC(=O)O; Aib = CC(C)(N)C(=O)O
measured endpoint: Human AmyR3 potency [EC50 (pM)]
Report the value in pM with no unit label.

Query block: Return Human AmyR3 potency [EC50 (pM)] for the following binder: Compound 0097 (peptide) peptide: HGEGTFTSDVSSYLEEQAARK([AEEA-AEEA-γGlu-Decanoyl(10-(4-HOOC-PhO))])FIEWLVRGK([AEEA-AEEA-γGlu-Decanoyl(10-(4-HOOC-PhO))])GEGGGGGEASELSTAALGRLSAELHELATLPRTETGSGSP-NH2
Result block: 93.1

Query block: Output Human AmyR3 potency [EC50 (pM)] of Compound 0265 (peptide) peptide: H[Aib]EGTFTSDVSSYLEEK([AEEA-AEEA-γGlu-Trx-C20 diacid])AAREFIAWLVRGRGGGGEASELSTAALGRLSAELHELATLPRTETGSGSP-NH2
Result block: 8.1

Query block: Output measured Human AmyR3 potency [EC50 (pM)] for this item: Compound 0039 (peptide) peptide: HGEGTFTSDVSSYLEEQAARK([AEEA-AEEA-γGlu-C14 diacid])FIEWLVRGK([AEEA-AEEA-γGlu-C14 diacid])GEASELSTAALGRLSAELHELATLPRTETGSGSP-NH2
Result block: 59.5

Query block: Name the recorded Human AmyR3 potency [EC50 (pM)] of the item Compound 0234 (peptide) peptide: HWEGTFTSDVSSYLEEQAAREFIEWLVRGK([AEEA-AEEA-γGlu-Decanoyl(10-(4-HOOC-PhO))])GEGGGGGASELSTAALGRLSAELHELK([AEEA-AEEA-γGlu-Decanoyl(10-(4-HOOC-PhO))])TLPRTETGSGSP-NH2 in your answer.
Result block: 38.4
